# ASSAY_TARGET: Catechol O-methyltransferase (Homo sapiens) (UniProt P21964)
# Sequence (P21964 whole entry, looked up): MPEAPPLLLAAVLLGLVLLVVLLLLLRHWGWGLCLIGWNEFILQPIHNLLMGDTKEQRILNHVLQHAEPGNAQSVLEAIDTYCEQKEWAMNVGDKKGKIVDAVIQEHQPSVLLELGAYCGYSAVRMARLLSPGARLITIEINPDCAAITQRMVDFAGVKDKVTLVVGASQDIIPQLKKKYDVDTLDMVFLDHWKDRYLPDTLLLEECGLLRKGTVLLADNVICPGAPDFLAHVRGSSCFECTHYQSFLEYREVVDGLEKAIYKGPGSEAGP
# ASSAY_METHOD_TEXT: Confirmatory Screen for Target Class Profiling of Small Molecule Inhibitors of Methyltransferases (AID 1745852)
# ASSAY_SETUP: MTase-Glo luminescence, SAH detection, recombinant enzyme; measured here: COMT max response; stronger effect = lower value
y if activity is below -50%. n if not; exact matches included in n.

Solved cases below.
[[record]]
compound = "CC1(C)CC[C@]2(C(=O)O[C@@H]3O[C@H](CO)[C@@H](O)[C@H](O)[C@H]3O)CC[C@]3(C)C(=CCC4[C@@]5(C)C[C@@H](O)[C@H](O)C(C)(C)C5CC[C@]43C)C2[C@@H]1O (some centres undefined)"
discrete_label = "y"

[[record]]
compound = "COC(=O)C1=CO[C@@H](O[C@@H]2O[C@H](CO)[C@@H](O)[C@H](O)[C@H]2O)[C@H]2[C@@H]1CC(OC)O[C@@H]2C (some centres undefined)"
discrete_label = "y"

[[record]]
compound = "COc1cc2nc(N3CCCC3)nc(NCCCCCN3CCCC3)c2cc1OC"
discrete_label = "n"

[[record]]
compound = "CN1CCN(C(=O)c2ccc3cc(CCNc4ncnc5ccc(C#N)cc45)ccc3c2)CC1"
discrete_label = "n"

[[record]]
compound = "C=C(C)C(=O)OC1CC2(C)OC(=CC2=O)C(=C)CC2OC(=O)C(COC)C12 (centres undefined)"
discrete_label = "y"

[[record]]
compound = "CCN(CC)c1ccc2c(O)c(C=Nc3ccc(CC(=O)O)c(-c4c5c(nc6ccccc46)CCC(C(=O)NN)C5)c3)c(=O)oc2c1 (centres undefined)"
discrete_label = "n"

[[record]]
compound = "C=C(C)C1Cc2cc(C(=O)OC3OC(CO)C(O)C(O)C3O)ccc2O1 (centres undefined)"
discrete_label = "y"


Okay, next one:
Query: I wonder whether "C=C(F)c1sc(CNCCCNc2cc(=O)c3ccccc3[nH]2)c(C)c1Br" has activity below -50%. Can you tell?
Result: n
